- study-system: WRN ATPase (Homo sapiens, UniProt Q14191)
- Sequence (Q14191 527-1072 limits assumed): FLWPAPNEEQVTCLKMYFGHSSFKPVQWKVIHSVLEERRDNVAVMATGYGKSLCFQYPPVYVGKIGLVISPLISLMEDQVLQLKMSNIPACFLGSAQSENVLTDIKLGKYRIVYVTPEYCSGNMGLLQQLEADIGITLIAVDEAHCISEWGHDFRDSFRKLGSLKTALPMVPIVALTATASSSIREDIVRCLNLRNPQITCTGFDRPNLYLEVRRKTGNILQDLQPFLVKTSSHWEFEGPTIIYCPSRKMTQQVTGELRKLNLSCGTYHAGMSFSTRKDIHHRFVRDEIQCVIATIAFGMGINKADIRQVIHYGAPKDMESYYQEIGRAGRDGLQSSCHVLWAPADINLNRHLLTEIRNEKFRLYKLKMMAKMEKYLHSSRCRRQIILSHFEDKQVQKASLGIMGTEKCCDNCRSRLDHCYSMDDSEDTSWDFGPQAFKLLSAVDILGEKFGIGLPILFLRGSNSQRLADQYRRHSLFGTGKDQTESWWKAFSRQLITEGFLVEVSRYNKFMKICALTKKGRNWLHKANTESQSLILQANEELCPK
metric-name: pIC50
Schema: pIC50 number; meaning minus log10 of the concentration expressed in molar units.

Query string: Quote WRN ATPase (Homo sapiens, UniProt Q14191) pIC50 for entry CCc1c(N2CC3CC(C(=O)c4ncnc(C)c4O)C(C2)N3)c(=O)n2nc(C3=CCOCC3)nc2n1CC(=O)Nc1ccc(C(F)(F)F)cc1Cl (stereo not shown) [Compound 186] .
Result string: 7.89

====

Entries with their measured IC50, system WRN helicase (His-WRN527-072) (Homo sapiens, UniProt Q14191):
Entry rule: numbers only, all in nM.

Some entries whose results are on file:
CCc1c(N2CC3CC(C(=O)c4ncnc(C)c4O)C(C2)N3)c(=O)n2nc(C3=CCOCC3)nc2n1CC(=O)Nc1ccc(C(F)(F)F)cc1Cl (centres unmarked); 2.7
CCc1c(N2[C@@H]3CC[C@H]2CN(C(=O)c2ncnc(C)c2O)C3)c(=O)n2nc(C3=CCOCC3)nc2n1CC(=O)Nc1ccc(C(F)(F)F)cc1C; 3.5
CCc1c(N2CC3CCC(C2)N3C(=O)c2ncccc2O)c(=O)n2nc(C3=CCOCC3)nc2n1CC(=O)Nc1ccc(C(F)(F)F)cc1Cl; 4.5
CCc1c(N2C3CCC2CN(C(=O)c2ncccc2O)C3)c(=O)n2nc(C3=CCOCC3)nc2n1CC(=O)Nc1ccc(C(F)(F)F)cc1C; 3.6

Please examine the following record next.
Query string: Given `CCc1c(N2C3CCC2CN(C(=O)c2ncccc2O)C3)c(=O)n2nc(C3=CCOCC3)nc2n1CC(=O)Nc1ccc(C(F)(F)F)cc1Cl` , report its IC50 on WRN helicase (His-WRN527-072) (Homo sapiens, UniProt Q14191).
Sequence (Q14191 527-1072 limits assumed): as above
Result string: 4.6
